# Tested on: OXA-484
# Construct: gene blaOXA-484; mature beta-lactamase AA20-265 in pET41b(+), expressed in E. coli BL21(DE3), purified; gene 798 bp; natural variant equal to OXA-181 with R214G
# procedure_text: UV spectrophotometry, initial rates, Eadie-Hofstee plot
# Type: biochemical, Escherichia coli
# condition: 30 °C, 100 mM sodium phosphate, pH 7.0; read-out: Km (μM) / OXA-484
Class Y: Km at least 200 µM. Class N: Km below 200 µM.

compound | assigned_label
C[C@@H](O)[C@H]1C(=O)N2C(C(=O)O)=C(SCCN=CN)C[C@H]12 | N
CC1(C)S[C@@H]2[C@H](NC(=O)[C@H](N)c3ccccc3)C(=O)N2[C@H]1C(=O)O | Y
C[C@@H](O)[C@H]1C(=O)N2C(C(=O)O)=C(S[C@@H]3CN[C@H](C(=O)Nc4cccc(C(=O)O)c4)C3)[C@H](C)[C@H]12 | N

Quick check, Km >= 200 µM? C[C@@H](O)[C@H]1C(=O)N2C(C(=O)O)=C(S[C@@H]3CN[C@H](C(=O)N(C)C)C3)[C@H](C)[C@H]12
Y

Can you check CO[C@@]1(NC(=O)C(C(=O)O)c2ccsc2)C(=O)N2[C@@H](C(=O)O)C(C)(C)S[C@@H]21 (stereo partly shown) next?
N

Can you check CC1(C)S[C@@H]2[C@H](NC(=O)Cc3ccccc3)C(=O)N2[C@H]1C(=O)O next?
N

Can you check CC(=O)OCC1=C(C(=O)O)N2C(=O)[C@@H](NC(=O)Cc3cccs3)[C@H]2SC1 next?
N
